- assay_notes: Multiple ascending dose (MAD) pharmacokinetics in healthy volunteers, BID for 14 days
- Type: in vivo, human
- details: human, plasma, oral, 300 mg, 300 mg BID, Day 14, plasma; read-out: AUC12, geometric mean (Geo CV%)
measurement_type: AUC (ng·h/mL)
Dear colleague, please return just the value in ng·h/mL, with no unit written.

Just so you know, measured AUC for CC(=O)N1CCC(COc2cc(F)c3c(=O)[nH]c(CSC4CCOCC4)nc3c2)CC1 came out at 9550

====

- assay_notes: Multiple ascending dose (MAD) pharmacokinetics in healthy volunteers, BID for 14 days
- Assay type: in vivo, human
- details: human, plasma, oral, 300 mg, 300 mg BID, Day 1, plasma; read-out: t1/2, mean (SD) (converted)
measurement_type: half-life (h)
Dear colleague, please return just the value in h, with no unit written.

Just so you know, measured half-life for CC(=O)N1CCC(COc2cc(F)c3c(=O)[nH]c(CSC4CCOCC4)nc3c2)CC1 [RBN‐3143] came out at 4.19
